test description: Pharmacokinetics in rats (plasma) after oral administration
setup conditions: male, SD, rat, 5 mg/kg
assay metric: Tmax

1) CNN(C(=O)c1cc2c(cn1)nc(N)c1cnn(C)c12)[C@@H]1COc2cc(S(F)(F)(F)(F)F)ccc21 (single isomer, unassigned) [Example 375-P1] ... 78 min
2) CNN(C(=O)c1cc2c3c(c(N)nc2cn1)COC3)[C@@H]1COCc2c1ccn1c(C(F)(F)F)cnc21 ... 48 min
3) [2H]C([2H])([2H])NN(C(=O)c1cc2c3c(c(N)nc2cc1F)COC3)C1COCc2c1ccn1c(C(F)(F)F)cnc21 (stereo not drawn) ... 30 min
4) [2H]C([2H])([2H])NN(C(=O)c1cc2c3c(c(N)nc2cn1)COC3)[C@H]1COCc2c1ccn1c(C(F)(F)F)cnc21 (stereo in doubt) [Example 371-P1] ... 48 min
5) [2H]C([2H])([2H])NN(C(=O)c1ccc2nc(N)c3cnn(C)c3c2c1)C1COCc2c1ccn1c(C(F)(F)F)cnc21 (stereo not drawn) ... 198 min
6) [2H]C([2H])([2H])NN(C(=O)c1cc2c3c(c(N)nc2cn1)COC3)C1COCc2c1ccn1c(C(F)(F)F)cnc21 (stereo not drawn) ... 30 min

====

target under test: hERG potassium channel (Homo sapiens)
Sequence (Q12809 whole entry): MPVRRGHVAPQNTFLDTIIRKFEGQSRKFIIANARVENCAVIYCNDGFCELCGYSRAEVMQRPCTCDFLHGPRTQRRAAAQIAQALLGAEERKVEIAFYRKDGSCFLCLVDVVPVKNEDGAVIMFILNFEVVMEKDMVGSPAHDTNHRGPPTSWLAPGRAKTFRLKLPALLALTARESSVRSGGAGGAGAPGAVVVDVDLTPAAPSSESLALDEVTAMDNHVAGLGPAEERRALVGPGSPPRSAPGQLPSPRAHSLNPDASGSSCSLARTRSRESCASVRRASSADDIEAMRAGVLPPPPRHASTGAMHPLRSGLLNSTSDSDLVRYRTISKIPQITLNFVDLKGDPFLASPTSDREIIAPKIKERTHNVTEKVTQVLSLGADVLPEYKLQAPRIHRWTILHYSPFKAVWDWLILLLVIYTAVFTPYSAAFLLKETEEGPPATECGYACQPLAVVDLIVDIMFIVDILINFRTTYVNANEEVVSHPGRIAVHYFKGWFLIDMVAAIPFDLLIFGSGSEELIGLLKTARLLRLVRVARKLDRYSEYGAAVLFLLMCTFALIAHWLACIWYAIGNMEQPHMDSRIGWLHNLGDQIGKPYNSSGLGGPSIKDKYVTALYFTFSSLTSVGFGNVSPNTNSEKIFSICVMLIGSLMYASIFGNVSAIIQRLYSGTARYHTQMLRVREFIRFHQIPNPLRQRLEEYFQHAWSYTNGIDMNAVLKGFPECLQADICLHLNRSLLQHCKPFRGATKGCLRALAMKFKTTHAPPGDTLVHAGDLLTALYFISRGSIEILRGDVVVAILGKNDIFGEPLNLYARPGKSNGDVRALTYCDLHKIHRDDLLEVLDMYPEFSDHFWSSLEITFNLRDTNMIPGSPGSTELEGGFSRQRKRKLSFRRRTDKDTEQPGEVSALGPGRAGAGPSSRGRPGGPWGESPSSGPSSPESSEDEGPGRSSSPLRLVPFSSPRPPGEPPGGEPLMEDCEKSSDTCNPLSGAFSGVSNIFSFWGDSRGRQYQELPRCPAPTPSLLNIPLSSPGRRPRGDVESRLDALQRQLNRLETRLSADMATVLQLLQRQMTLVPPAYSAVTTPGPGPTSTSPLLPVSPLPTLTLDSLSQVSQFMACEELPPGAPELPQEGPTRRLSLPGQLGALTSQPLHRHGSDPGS
test description: hERG potassium channel inhibitory activity assay (patch clamp, CHO-hERG cells)
setup conditions: tail current, read-out: inhibitory activity (IC50) against the cardiac hERG potassium channel
assay metric: IC50

1. [2H]C([2H])([2H])NN(C(=O)c1cc2c(cn1)nc(N)c1cnn(C)c12)C1COCc2c1ccn1c(C(F)(F)F)cnc21 (stereo not drawn) [Example 391] ... > 30 µM
2. CNN(C(=O)c1cc2c3c(c(N)nc2cn1)COC3)[C@@H]1COCc2nc(S(F)(F)(F)(F)F)ccc21 ... > 30 µM
3. [2H]C([2H])([2H])NN(C(=O)c1cc2c3c(c(N)nc2cn1)[C@@H](C)OC3)[C@@H]1COCc2c1ccn1c(C(F)(F)F)cnc21 [Example 362-P1] ... > 30 µM

====

target under test: PRMT5/MEP50-MTA protein complex (Homo sapiens)
Construct: purchased Viva Biotech
Sequence (O14744 whole entry): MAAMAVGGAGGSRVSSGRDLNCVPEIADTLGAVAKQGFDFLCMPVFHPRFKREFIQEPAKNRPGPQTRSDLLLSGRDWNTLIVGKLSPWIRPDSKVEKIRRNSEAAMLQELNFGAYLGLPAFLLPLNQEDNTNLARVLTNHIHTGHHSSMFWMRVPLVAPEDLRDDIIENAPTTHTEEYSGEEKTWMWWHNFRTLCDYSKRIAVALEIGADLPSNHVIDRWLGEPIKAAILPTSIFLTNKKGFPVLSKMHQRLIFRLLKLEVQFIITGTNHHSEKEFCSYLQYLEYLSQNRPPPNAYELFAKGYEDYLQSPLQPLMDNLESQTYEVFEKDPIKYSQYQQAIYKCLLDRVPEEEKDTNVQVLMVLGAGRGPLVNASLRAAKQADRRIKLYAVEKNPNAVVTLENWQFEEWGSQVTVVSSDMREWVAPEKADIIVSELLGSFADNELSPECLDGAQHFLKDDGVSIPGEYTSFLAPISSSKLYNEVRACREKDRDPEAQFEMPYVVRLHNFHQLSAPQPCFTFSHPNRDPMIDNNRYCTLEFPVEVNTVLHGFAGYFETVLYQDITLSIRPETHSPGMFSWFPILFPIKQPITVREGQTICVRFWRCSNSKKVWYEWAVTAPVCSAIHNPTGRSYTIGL
Sequence (Q9BQA1 whole entry partner): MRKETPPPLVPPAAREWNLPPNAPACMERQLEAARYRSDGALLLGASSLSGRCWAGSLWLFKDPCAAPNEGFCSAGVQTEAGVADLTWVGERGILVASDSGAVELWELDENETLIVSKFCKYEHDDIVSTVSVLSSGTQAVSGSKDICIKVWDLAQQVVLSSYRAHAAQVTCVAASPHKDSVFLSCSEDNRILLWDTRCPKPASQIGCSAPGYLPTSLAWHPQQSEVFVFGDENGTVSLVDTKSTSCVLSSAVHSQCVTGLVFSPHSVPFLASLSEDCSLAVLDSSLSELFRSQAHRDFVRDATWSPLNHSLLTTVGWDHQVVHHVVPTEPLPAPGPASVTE
test description: Thermal shift assay: change in melting temperature of the PRMT5/MEP50-MTA protein complex
Type: binding
setup conditions: compound 8 µM, PRMT5/MEP50 2 µM, MTA 2 µM; Tm minus DMSO vehicle control
Consider the following compounds and their measured ΔTm at 8 µM readings.
assay metric: ΔTm at 8 µM

1. Cc1cc2nc(N)c3cncn3c2cc1C(=O)N(C)[C@@H]1COCc2c1ccn1c(C(F)(F)F)cnc21 [Example 62-P1] ... 12.5 °C
2. CNN(C(=O)c1cc2c(cn1)nc(N)c1cncn12)C1COc2cc(S(F)(F)(F)(F)F)ccc21 (single isomer, unassigned) [Example 385-P1] ... 14 °C
3. Cc1cc2nc(N)c3cncn3c2cc1C(=O)N(C)C1COCc2c1ccc1nc(C(F)(F)F)cn21 (stereo not drawn) [Example 48] ... 11.7 °C
4. CN(C(=O)c1cc2c(cc1F)nc(N)c1cncn12)C1COCc2c1ccn1c(C(F)=C3CCCCC3)cnc21 (stereo not drawn) [Example 240] ... 10.8 °C
5. CNN(C(=O)c1cc2c3c(c(N)nc2cc1C)COC3)C1COCc2nc(C(F)(F)F)ccc21 (stereo not drawn) [Example 307] ... 12.7 °C
6. CNN(C(=O)c1cc2c3c(c(N)nc2cn1)COC3)[C@@H]1COCc2nc(S(F)(F)(F)(F)F)ccc21 [Example 374] ... 12.3 °C
7. CN(C(=O)c1ccc2nc(N)c3cnn(C)c3c2c1)C1COCc2c1ccn1c(C(F)(F)F)cnc21 (stereo not drawn) [Example 83] ... 11.8 °C
8. CNN(C(=O)c1cc2c(cc1F)nc(N)c1cncn12)C1COCc2c1ccn1c(C(F)(F)F)cnc21 (stereo not drawn) [Example 282] ... 12.3 °C
9. [2H]C([2H])([2H])NN(C(=O)c1cc2c(cc1Cl)nc(N)c1cnn(C)c12)C1COCc2c1ccn1c(C(F)(F)F)cnc21 (stereo not drawn) [Example 435] ... 13.7 °C
10. CNN(C(=O)c1cc2c3c(c(N)nc2cn1)COC3)[C@@H]1COCc2nc(C(F)(F)F)ccc21 [Example 286-P1] ... 11.1 °C
11. CN(C(=O)c1cc2c(cc1F)nc(N)c1cncn12)C1COCc2c1ccn1c(C(F)(F)F)c(C(=O)N3CC(=C(F)F)C3)nc21 (stereo not drawn) [Example 234] ... 10.9 °C
12. [2H]C([2H])([2H])NN(C(=O)c1cc2c3c(c(N)nc2cc1F)COC3)C1COCc2c1ccn1c(C(F)(F)F)cnc21 (stereo not drawn) [Example 351] ... 12.6 °C
13. CNN(C(=O)c1ccc2nc(N)c3cnn(C)c3c2c1)C1COCc2nc(C(F)(F)F)ccc21 (racemic) [Example 301] ... 11.6 °C
14. CNN(C(=O)c1ccc2nc(N)c3cnn(C)c3c2c1)C1COc2cc(S(F)(F)(F)(F)F)ccc21 (racemic) [Example 450] ... 12 °C
15. CNN(C(=O)c1ccc2nc(N)c3cnn(C)c3c2c1)C1COCc2nc(S(F)(F)(F)(F)F)ccc21 (stereo not drawn) [Example 448] ... 12.3 °C
16. CNN(C(=O)c1cc2c3c(c(N)nc2cn1)N=NC3C)C1COCc2c1ccn1c(C(F)(F)F)cnc21 (stereo not drawn) [Example 444] ... 12.7 °C
17. [2H]C([2H])([2H])NN(C(=O)c1ccc2nc(N)c3cnn(C)c3c2c1)[C@@H]1COCc2nc(C(F)(F)F)ccc21 [Example 317] ... 11.6 °C
18. [2H]C([2H])([2H])NN(C(=O)c1cc2c3c(c(N)nc2cn1)C(C)OC3)[C@@H]1COCc2nc(C(F)(F)F)ccc21 (stereo partly drawn) [Example 322] ... 10.7 °C
19. CNN(C(=O)c1cc2c3c(c(N)nc2cn1)COC3)C1COc2cc(S(F)(F)(F)(F)F)ccc21 (stereo not drawn) [Example 372] ... 11.2 °C
20. [2H]C([2H])([2H])NN(C(=O)c1ccc2nc(N)c3c(c2c1)COC3)C1COCc2c1ccn1c(C(F)(F)F)cnc21 (stereo not drawn) [Example 392] ... 10.4 °C
21. [2H]C([2H])([2H])NN(C(=O)c1cc2c3c(c(N)nc2cn1)[C@@H](C)OC3)[C@@H]1COCc2c1ccn1c(C(F)(F)F)cnc21 [Example 362-P1] ... 12 °C
22. [2H]C([2H])([2H])NN(C(=O)c1cc2c3c(c(N)nc2cn1)COC3)C1COCc2nc(C(F)(F)F)ccc21 (stereo not drawn) [Example 321] ... 10.9 °C
23. Cc1cc2nc(N)c3cncn3c2cc1C(=O)N(C)C1COCc2c1ccn1cc(C(F)(F)F)nc21 (stereo not drawn) [Example 39] ... 11.7 °C
24. [2H]C([2H])([2H])NN(C(=O)c1cc2c3c(c(N)nc2cn1)COC3)[C@@]1([2H])COCc2c1ccn1c(C(F)(F)F)cnc21 [Example 354-P1] ... 11.6 °C
25. CN(C(=O)c1ccc2nc(N)c3cnn(C)c3c2c1)C1COCc2c1ccc1nc(C(F)(F)F)cn21 (stereo not drawn) [Example 81] ... 10.4 °C
26. CNN(C(=O)c1cc2c3c(c(N)nc2cn1)COC3)[C@@H]1COCc2c1ccn1c(C(F)(F)F)cnc21 [Example 285] ... 11.6 °C
27. [2H]C([2H])([2H])NN(C(=O)c1cc2c3c(c(N)nc2cn1)C(C)OC3)C1COCc2c1ccn1c(C(F)(F)F)cnc21 (stereo not drawn) [Example 362] ... 11.2 °C

Value source: patent EP4818177A1
